# System: wheat
# procedure.summary: Test A pre-/postemergence greenhouse test
# Assay type: in vivo, Triticum aestivum
# conditions: Postemergence, 500 g ai/ha; 0 to 100 scale, 0 is no effect, 100 is complete control
reported.metric: Wheat plant response rating

Q: I have this compound here, `Cc1cc[n+]([O-])c(S(=O)(=O)Cc2c(C(F)(F)F)nn(C)c2OCC(F)F)c1` , and I need its recorded Wheat plant response rating.
A: 80

Q: I have this compound here, CCn1nc(C(F)(F)F)c(C(C)S(=O)(=O)c2cccc[n+]2[O-])c1OCC(F)(F)F (stereo not shown) , and I need its recorded Wheat plant response rating.
A: 60

Q: I have this compound here, Cn1nc(C(F)(F)F)c(C(Cl)S(=O)(=O)c2cccc[n+]2[O-])c1OC(F)F (stereo not shown) , and I need its recorded Wheat plant response rating.
A: 60

Q: I have this compound here, Cn1nc(C(F)(F)F)c(C[S+]([O-])c2c(F)ccc[n+]2[O-])c1Cl (stereo not shown) , and I need its recorded Wheat plant response rating.
A: 50

Values compiled from patent US20100298141A1.
